- MEASUREMENT TARGET: Tyrosine-protein phosphatase non-receptor type 1 (Homo sapiens, UniProt P18031)
- Sequence (P18031 whole entry): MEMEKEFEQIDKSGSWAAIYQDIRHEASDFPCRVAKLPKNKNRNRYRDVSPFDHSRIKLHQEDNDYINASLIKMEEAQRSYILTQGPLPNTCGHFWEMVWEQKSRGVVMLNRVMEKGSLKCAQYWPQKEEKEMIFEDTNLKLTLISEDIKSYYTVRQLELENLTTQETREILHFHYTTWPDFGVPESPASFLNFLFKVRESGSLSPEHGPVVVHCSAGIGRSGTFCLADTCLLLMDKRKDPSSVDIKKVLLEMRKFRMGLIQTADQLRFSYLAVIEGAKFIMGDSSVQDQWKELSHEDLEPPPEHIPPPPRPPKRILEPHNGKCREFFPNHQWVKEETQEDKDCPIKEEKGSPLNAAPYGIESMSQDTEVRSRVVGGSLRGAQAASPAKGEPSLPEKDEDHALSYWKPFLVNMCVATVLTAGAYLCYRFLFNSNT
- PROTOCOL TEXT: Inhibition of PTP1B (unknown origin)
- CONDITION LABEL: read-out: IC50
pIC50: −log10 of the molar value.
Returns one of Fulfilled or Not fulfilled; Fulfilled when pIC50 is >= 6.

These recorded examples may help you get a feel for the data.
CSCCC(NC(=O)C[C@]12CCC(C)(C)C[C@H]1C1=CC[C@@H]3[C@@]4(C)CC[C@H](O)C(C)(C)[C@@H]4CC[C@@]3(C)[C@]1(C)CC2)C(=O)O (stereo partly specified) | Fulfilled
CC1(C)CC[C@]2(C(=O)O)CC[C@]3(C)C(=CC[C@@H]4[C@@]5(C)CC[C@H](OCc6ccccc6C(=O)O)C(C)(C)[C@@H]5CC[C@]43C)[C@@H]2C1 | Not fulfilled
CC1(C)CC[C@]2(CC(=O)NC(Cc3ccc(F)cc3)C(=O)O)CC[C@]3(C)C(=CC[C@@H]4[C@@]5(C)CC[C@H](O)C(C)(C)[C@@H]5CC[C@]43C)[C@@H]2C1 (stereo partly specified) | Fulfilled
CC1(C)CC[C@]2(C(=O)Nc3ccc(C(=O)O)cc3)CC[C@]3(C)C(=CC[C@@H]4[C@@]5(C)CC[C@H](O)C(C)(C)[C@@H]5CC[C@]43C)[C@@H]2C1 | Not fulfilled

Please turn your attention to the following entry.
For this compound, is measured pIC50 6 or higher? CC1(C)CC[C@]2(CC(=O)NC(Cc3cccc(Cl)c3)C(=O)O)CC[C@]3(C)C(=CC[C@@H]4[C@@]5(C)CC[C@H](O)C(C)(C)[C@@H]5CC[C@]43C)[C@@H]2C1 (stereo partly specified)
Fulfilled

----------
- MEASUREMENT TARGET: Tyrosine-protein phosphatase non-receptor type 1 (Homo sapiens)
- PROTOCOL TEXT: Inhibition of PTP1B (unknown origin)
- CONDITION LABEL: read-out: pIC50 (converted)
Quick list: IC50 per entry.
Provide the reading as a plain figure in µM.

CC1(C)CC[C@]2(CC(=O)NC(Cc3cccc(Cl)c3)C(=O)O)CC[C@]3(C)C(=CC[C@@H]4[C@@]5(C)CC[C@H](O)C(C)(C)[C@@H]5CC[C@]43C)[C@@H]2C1 (stereo not given in full) | 0.51
CC1(C)CC[C@]2(C(=O)NC(Cc3ccccc3)C(=O)O)CC[C@]3(C)C(=CC[C@@H]4[C@@]5(C)CC[C@H](O)C(C)(C)[C@@H]5CC[C@]43C)[C@@H]2C1 (stereo not given in full) | 3.31
CC1(C)CC[C@]2(C(=O)Nc3ccc(C(=O)O)cc3)CC[C@]3(C)C(=CC[C@@H]4[C@@]5(C)CC[C@H](O)C(C)(C)[C@@H]5CC[C@]43C)[C@@H]2C1 | 3.09

So, CC1(C)CC[C@]2(C(=O)O)CC[C@]3(C)C(=CC[C@@H]4[C@@]5(C)CC[C@H](Cc6ccccc6C(=O)O)C(C)(C)[C@@H]5CC[C@]43C)[C@@H]2C1 ? Its IC50 was 2.72

So, CC1(C)CC[C@]2(C(=O)NC(CCC(=O)O)C(=O)O)CC[C@]3(C)C(=CC[C@@H]4[C@@]5(C)CC[C@H](O)C(C)(C)[C@@H]5CC[C@]43C)[C@@H]2C1 (stereo not given in full) ? Its IC50 was 16.4

So, CC1(C)CC[C@]2(C(=O)OCCCCCCCCCCCCC(=O)O)CC[C@]3(C)C(=CC[C@@H]4[C@@]5(C)CC[C@H](O)C(C)(C)[C@@H]5CC[C@]43C)[C@@H]2C1 ? Its IC50 was 0.59

The reported numbers originate from ChEMBL document CHEMBL3045057.
